Molecular target: T1, human IL-11Rα (human, UniProt Q14626 23-363, limits assumed)
T1 construct: Protein coated on ELISA plates and used in solution for BLI; also called hIL-11Rα; hIL-11R
T1 sequence: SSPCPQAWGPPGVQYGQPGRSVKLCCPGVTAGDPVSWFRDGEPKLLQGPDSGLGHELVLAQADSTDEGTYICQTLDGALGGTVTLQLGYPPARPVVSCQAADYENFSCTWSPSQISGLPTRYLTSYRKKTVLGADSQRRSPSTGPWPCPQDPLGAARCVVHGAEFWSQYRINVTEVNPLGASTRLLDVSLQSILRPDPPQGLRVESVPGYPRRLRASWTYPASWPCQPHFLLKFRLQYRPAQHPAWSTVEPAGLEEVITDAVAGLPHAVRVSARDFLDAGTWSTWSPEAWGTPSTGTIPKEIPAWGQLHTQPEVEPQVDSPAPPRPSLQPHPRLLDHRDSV
Test: BLI (Octet RED96e), mAb on protein G biosensors, hIL-11Rα in solution
pKd: −log10 of the molar value.
Endpoint Name: pKd

// batch mode: one pKd value per listed entry
1. mAb5 (antibody, V domains shown, Expressed as human IgG4 (S228P EU); also called mAb5 IL11RA Ab) VH: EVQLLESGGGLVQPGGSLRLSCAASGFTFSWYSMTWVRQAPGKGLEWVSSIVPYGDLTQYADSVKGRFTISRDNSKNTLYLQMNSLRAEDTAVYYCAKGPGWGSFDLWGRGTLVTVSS VL: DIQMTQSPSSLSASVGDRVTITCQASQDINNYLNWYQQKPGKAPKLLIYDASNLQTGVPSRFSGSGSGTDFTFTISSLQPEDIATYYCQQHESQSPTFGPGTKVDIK
2. mAb13 (antibody, V domains shown, Expressed as human IgG4 (S228P EU)) VH: EVQLLESGGGLVQPGGSLRLSCAASGFTFSWYSMTWVRQAPGKGLEWVSSIVPYGDLTQYADSVKGRFTISRDNSKNTLYLQMNSLRAEDTAVYYCAKPEDWGRFDLWGRGTLVTVSS VL: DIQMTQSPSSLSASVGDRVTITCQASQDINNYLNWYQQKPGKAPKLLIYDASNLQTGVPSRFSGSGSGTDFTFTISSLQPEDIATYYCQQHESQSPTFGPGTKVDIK
3. mAb11 (antibody, V domains shown, Expressed as human IgG4 (S228P EU)) VH: EVQLLESGGGLVQPGGSLRLSCAASGFTFSWYSMTWVRQAPGKGLEWVSSIVDYGDLTQYADSVKGRFTISRDNSKNTLYLQMNSLRAEDTAVYYCAKGPGWGSFDLWGRGTLVTVSS VL: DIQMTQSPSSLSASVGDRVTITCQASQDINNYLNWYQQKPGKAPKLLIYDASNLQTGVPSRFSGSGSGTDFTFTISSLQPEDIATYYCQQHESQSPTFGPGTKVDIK
4. mAb14 (antibody, V domains shown, Expressed as human IgG4 (S228P EU)) VH: EVQLLESGGGLVQPGGSLRLSCAASGFTFSWYSMTWVRQAPGKGLEWVSSIVPYGDLTQYAESVKGRFTISRDNSKNTLYLQMNSLRAEDTAVYYCAKGPGWGSFDLWGRGTLVTVSS VL: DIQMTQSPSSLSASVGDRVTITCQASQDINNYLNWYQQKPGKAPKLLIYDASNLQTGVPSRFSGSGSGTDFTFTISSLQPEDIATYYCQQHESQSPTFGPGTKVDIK

1. > 12.00
2. > 12.00
3. 6.26
4. > 12.00
